The measurements presented in this section are drawn from paper PMC11811690.

system: M. tuberculosis H37Rv poly-g-GFP; experiment: microbe, parasite or virus in culture; type: cell-based; conditions: Mycobacterium tuberculosis, H37RV, 240 h, read-out: IC90 Mtb H37Rv-poly-g-GFP, fluorescence read-out
Reported IC90 values for the following compounds.
ASSAY ENDPOINT: IC90 (µg/mL)

>>> measured_number("CC[C@H]1/C=C(\\C)[C@@H](O)C/C=C/C=C(\\CNCc2nnc(-c3cc(Cl)cc(Cl)c3)o2)C(=O)O[C@H]([C@@H](C)O)C/C=C(C)/C=C(\\C)[C@@H]1O[C@@H]1OC(C)(C)[C@@H](OC(=O)C(C)C)[C@H](O)[C@@H]1O")
8
>>> measured_number("CC[C@H]1/C=C(\\C)[C@@H](O)C/C=C/C=C(\\CN2CCN(Cc3ccc(F)cc3)CC2)C(=O)O[C@H]([C@@H](C)O)C/C=C(C)/C=C(\\C)[C@@H]1O[C@@H]1OC(C)(C)[C@@H](OC(=O)C(C)C)[C@H](O)[C@@H]1O")
16
>>> measured_number("CC[C@H]1/C=C(\\C)[C@@H](O)C/C=C/C=C(\\CNc2nc(COc3ccccc3)cs2)C(=O)O[C@H]([C@@H](C)O)C/C=C(C)/C=C(\\C)[C@@H]1O[C@@H]1OC(C)(C)[C@@H](OC(=O)C(C)C)[C@H](O)[C@@H]1O")
8
>>> measured_number("CC[C@H]1/C=C(\\C)[C@@H](O)C/C=C/C=C(\\CNCc2nnc(-c3ccc(OC)c(OC)c3Cl)o2)C(=O)O[C@H]([C@@H](C)O)C/C=C(C)/C=C(\\C)[C@@H]1O[C@@H]1OC(C)(C)[C@@H](OC(=O)C(C)C)[C@H](O)[C@@H]1O")
8

----------
Reported Inhibition zone C. crescentus pfuhAh values for the following compounds.
system: C. crescentus pfhuA; test: Inhibition zone (Kirby-Bauer disk diffusion), C. crescentus pfhuA; details: 20 µg per disk, 24 h, 30 °C, permeable strain
ASSAY ENDPOINT: Inhibition zone C. crescentus pfuhAh (mm2)

>>> measured_number("CC[C@H]1/C=C(\\C)[C@@H](O)C/C=C/C=C(\\CNCc2nnc(-c3ccc(OC)c(OC)c3Cl)o2)C(=O)O[C@H]([C@@H](C)O)C/C=C(C)/C=C(\\C)[C@@H]1O[C@@H]1OC(C)(C)[C@@H](OC(=O)C(C)C)[C@H](O)[C@@H]1O")
54
>>> measured_number("CC[C@H]1/C=C(\\C)[C@@H](O)C/C=C/C=C(\\CNCc2nnc(-c3ccccc3)s2)C(=O)O[C@H]([C@@H](C)O)C/C=C(C)/C=C(\\C)[C@@H]1O[C@@H]1OC(C)(C)[C@@H](OC(=O)C(C)C)[C@H](O)[C@@H]1O")
108
>>> measured_number("CC[C@H]1/C=C(\\C)[C@@H](O)C/C=C/C=C(\\CNCc2nnc(-c3ccccc3)o2)C(=O)O[C@H]([C@@H](C)O)C/C=C(C)/C=C(\\C)[C@@H]1O[C@@H]1OC(C)(C)[C@@H](OC(=O)C(C)C)[C@H](O)[C@@H]1O")
127
>>> measured_number("CC[C@H]1/C=C(\\C)[C@@H](O)C/C=C/C=C(\\CNc2nccs2)C(=O)O[C@H]([C@@H](C)O)C/C=C(C)/C=C(\\C)[C@@H]1O[C@@H]1OC(C)(C)[C@@H](OC(=O)C(C)C)[C@H](O)[C@@H]1O")
81
>>> measured_number("CCc1c(Cl)c(O)c(Cl)c(O)c1C(=O)O[C@H]1[C@H](O)[C@H](OC)[C@H](OC/C2=C\\C=C\\C[C@H](O)/C(C)=C/[C@H](CC)[C@@H](O[C@@H]3OC(C)(C)[C@@H](OC(=O)C(C)C)[C@H](O)[C@@H]3O)/C(C)=C/C(C)=C/C[C@@H]([C@@H](C)O)OC2=O)O[C@@H]1C [Fdx, fidaxomicin, reference compound]")
126
